src = PubChem BioAssay AID1259415

Readings of activity change, negative = inhibition for the listed compounds
Assay: qHTS Assay for inhibitors of the human cytomegalovirus (HCMV); note: % is set by controls: 0 for no effect and ±100 for the full control effect
Details: HFF cells, HCMV-luciferase reporter, 72 h; at 57.5 µM; stronger effect = lower value
Experimental: NCGC Assay Overview: Infection with human cytomegalovirus (HCMV) continues to pose significant threats for pregnant women and immunocompromised hosts. […] This is a cell-based assay for HCMV inhibition in HFFs cells. […] At 72 h post infection cell lysates were collected and luciferase activity was determined using the Glomax-Multi + Detection System (Promega, Madison, WI). […]
Among all 410,000 compounds or so, about 18,000 (4.4%) were called active. Not shown: some 7% with an inconclusive outcome. The sample as a whole holds a higher share of actives than the screen did.
The response must be a number in % with no trailing unit.

Known activity change, negative = inhibition results, listed for orientation:
Exam item: For "CCN(C(=O)c1sc2cc(OC)ccc2c1Cl)c1ccccc1" , write its activity change, negative = inhibition.
Marked response: -99.2

Exam item: For "COc1cc(OC)cc(C(=O)Nc2ccc3nc(Nc4cccc(C(F)(F)F)c4)cc(C)c3c2)c1" , write its activity change, negative = inhibition.
Marked response: -92.6

Exam item: For COc1cccc(NC(=O)CN(C)C(C)C(=O)Nc2ccc(C#N)cc2)c1 (configuration not stated) , write its activity change, negative = inhibition.
Marked response: -15.8

Exam item: For "O=C(CCc1nc(CN2CCN(S(=O)(=O)c3ccc(Cl)cc3)CC2)no1)N1CCCCC1" , write its activity change, negative = inhibition.
Marked response: 30.2

Exam item: For "Cc1[nH]c(C)c(S(=O)(=O)N2CCN(c3cccc(C(F)(F)F)c3)CC2)c1C(=O)N1CCCC1" , write its activity change, negative = inhibition.
Marked response: -9.51

More entries:
Exam item: For COc1ccc(C2CC(=O)Nc3c2c(=O)nc2c(C)cccn32)cc1OC (configuration not stated) , write its activity change, negative = inhibition.
Marked response: 3.37

Exam item: For Cc1ccc(Cl)cc1N1CCN(C(=O)C2CCC(CNS(=O)(=O)c3cccs3)CC2)CC1 (configuration not stated) , write its activity change, negative = inhibition.
Marked response: -25.7
